Target: T1, human CD40-Fc protein (human, biotinylated (sites not given) in the capture ELISA and the benchmark blocking ELISA; not biotinylated in the ligand blocking ELISA)
T1 construct: also called biotinylated human CD40-Fc
Experiment: competitive ELISA: human CD40-Fc coated, antibody titrated, blocked ligand biotinylated human CD40L-his (95 ng/mL), streptavidin-HRP, OD(450-630)
Reported values of IC50 for individual entries
# value in nM; strip the unit string

binder | unit.abbreviation | IC50
humanized antibody huC1H1-V2 (antibody, human IgG2, kappa, V domains shown, Human IgG2 / kappa) VH: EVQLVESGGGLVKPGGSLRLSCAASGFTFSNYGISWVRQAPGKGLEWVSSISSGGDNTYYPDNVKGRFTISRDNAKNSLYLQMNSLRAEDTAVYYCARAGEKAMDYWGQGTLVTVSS VL: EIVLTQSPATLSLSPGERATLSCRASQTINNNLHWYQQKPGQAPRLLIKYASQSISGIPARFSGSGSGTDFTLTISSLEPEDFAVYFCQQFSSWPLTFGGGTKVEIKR | nM | 6.1
chimeric antibody C1H1 (antibody, human IgG1, kappa, V domains shown, also called Chimeric C1H1) VH: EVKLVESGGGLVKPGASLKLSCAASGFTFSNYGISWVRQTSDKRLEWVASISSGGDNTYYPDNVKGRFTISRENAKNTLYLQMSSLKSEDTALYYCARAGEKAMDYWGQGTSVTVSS VL: DIVLTQSPVTLSVTPGDSVSLSCRASQTINNNLHWYQQKSHESPRLLIKYASQSISGIPSRFSGSGSGTDFTLSINSVETEDFGIYFCQQFSSWPLTFGAGTKLELKR | nM | 6.97

We now examine a further binder.
Record summary for BM1 (dacetuzumab) (antibody, human IgG1, kappa, V domains shown, Benchmark antibody, prepared in-house; also called CD40-BM1; benchmark) VH: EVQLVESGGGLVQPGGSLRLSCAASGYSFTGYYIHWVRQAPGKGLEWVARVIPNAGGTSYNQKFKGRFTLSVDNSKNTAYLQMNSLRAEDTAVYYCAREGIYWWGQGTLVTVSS VL: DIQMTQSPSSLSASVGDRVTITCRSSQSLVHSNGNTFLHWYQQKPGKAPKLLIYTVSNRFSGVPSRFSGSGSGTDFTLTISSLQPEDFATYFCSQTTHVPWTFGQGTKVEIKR : reported IC50 = 2.01
